Test system: Haemophilus influenzae
Test Name: Antibacterial activity against Haemophilus influenzae by agar dilution method
Assay type: functional

[
  {
    "Compound": "CCOC(=O)c1ccc(NC2CN(c3c(F)cc4c(=O)c(C(=O)O)cn(C5CC5)c4c3F)C2)cc1",
    "MIC": "≤ 8 ng/mL"
  },
  {
    "Compound": "COc1c(N2CCNC(C)C2)c(F)cc2c(=O)c(C(=O)O)cn(C3CC3)c12 (stereo not drawn)",
    "MIC": "≤ 8 ng/mL"
  },
  {
    "Compound": "Cn1nnnc1SC1CN(c2c(F)cc3c(=O)c(C(=O)O)cn(C4CC4)c3c2F)C1",
    "MIC": "< 8 ng/mL"
  },
  {
    "Compound": "O=C(O)c1cn(C2CC2)c2c(F)c(N3CC(Sc4ncccn4)C3)c(F)cc2c1=O",
    "MIC": "≤ 8 ng/mL"
  },
  {
    "Compound": "O=C(O)c1cn(C2CC2)c2c(F)c(N3CC(N(Cc4ccccc4)Cc4ccccc4)C3)c(F)cc2c1=O",
    "MIC": "8000 ng/mL"
  },
  {
    "Compound": "Cn1cnnc1SC1CN(c2c(F)cc3c(=O)c(C(=O)O)cn(C4CC4)c3c2F)C1",
    "MIC": "≤ 8 ng/mL"
  },
  {
    "Compound": "O=C(O)c1cn(C2CC2)c2c(F)c(N3CC(Sc4nc5ccccc5s4)C3)c(F)cc2c1=O",
    "MIC": "500 ng/mL"
  },
  {
    "Compound": "C[C@H]1COc2c(N3CCN(C)CC3)c(F)cc3c(=O)c(C(=O)O)cn1c23.C[C@H]1COc2c(N3CCN(C)CC3)c(F)cc3c(=O)c(C(=O)O)cn1c23.O",
    "MIC": "≤ 8 ng/mL"
  }
]

###

System: Staphylococcus aureus
Test Name: Antibacterial activity against quinoline-intermediate methicillin-resistant Staphylococcus aureus by agar dilution method
Assay type: functional
Property: MIC; scope: individual compounds

[
  {
    "Compound": "Cn1cnnc1SC1CN(c2c(F)cc3c(=O)c(C(=O)O)cn(C4CC4)c3c2F)C1",
    "Unit Symbol": "mg/L",
    "Value Relation Sign": "=",
    "MIC": 4
  },
  {
    "Compound": "O=C(O)c1cn(C2CC2)c2c(F)c(N3CC(Nc4ccccc4)C3)c(F)cc2c1=O",
    "Unit Symbol": "mg/L",
    "Value Relation Sign": "=",
    "MIC": 0.5
  },
  {
    "Compound": "O=C(O)c1cn(C2CC2)c2c(F)c(N3CC(N(Cc4ccccc4)Cc4ccccc4)C3)c(F)cc2c1=O",
    "Unit Symbol": "mg/L",
    "Value Relation Sign": ">",
    "MIC": 64
  },
  {
    "Compound": "Cc1ccc(NC2CN(c3c(F)cc4c(=O)c(C(=O)O)cn(C5CC5)c4c3F)C2)cc1",
    "Unit Symbol": "mg/L",
    "Value Relation Sign": "=",
    "MIC": 0.5
  },
  {
    "Compound": "O=C(O)c1cn(C2CC2)c2c(F)c(N3CC(Sc4nc5ccccc5o4)C3)c(F)cc2c1=O",
    "Unit Symbol": "mg/L",
    "Value Relation Sign": "=",
    "MIC": 2
  },
  {
    "Compound": "COc1c(N2CCNC(C)C2)c(F)cc2c(=O)c(C(=O)O)cn(C3CC3)c12 (stereo unspecified)",
    "Unit Symbol": "mg/L",
    "Value Relation Sign": "=",
    "MIC": 2
  }
]

###

Test system: Enterococcus faecalis
Test Name: Antibacterial activity against Enterococcus faecalis by agar dilution method
Assay type: functional
Property: MIC; scope: individual molecules

[
  {
    "Chemical Structure": "C[C@H]1COc2c(N3CCN(C)CC3)c(F)cc3c(=O)c(C(=O)O)cn1c23.C[C@H]1COc2c(N3CCN(C)CC3)c(F)cc3c(=O)c(C(=O)O)cn1c23.O",
    "Value Relation Sign": "=",
    "MIC, µg/mL": 2
  },
  {
    "Chemical Structure": "O=C(O)c1cn(C2CC2)c2c(F)c(N3CC(Nc4ccccc4)C3)c(F)cc2c1=O",
    "Value Relation Sign": "=",
    "MIC, µg/mL": 0.25
  },
  {
    "Chemical Structure": "COc1ccc(NC2CN(c3c(F)cc4c(=O)c(C(=O)O)cn(C5CC5)c4c3F)C2)cc1",
    "Value Relation Sign": "=",
    "MIC, µg/mL": 0.25
  },
  {
    "Chemical Structure": "Cn1nnnc1Sc1c(F)cc2c(=O)c(C(=O)O)cn(C3CC3)c2c1F",
    "Value Relation Sign": ">",
    "MIC, µg/mL": 16
  },
  {
    "Chemical Structure": "Cn1cnnc1SC1CN(c2c(F)cc3c(=O)c(C(=O)O)cn(C4CC4)c3c2F)C1",
    "Value Relation Sign": "=",
    "MIC, µg/mL": 1
  },
  {
    "Chemical Structure": "O=C(O)c1cn(C2CC2)c2c(F)c(N3CC(Nc4ccc(Cl)cc4)C3)c(F)cc2c1=O",
    "Value Relation Sign": "=",
    "MIC, µg/mL": 1
  },
  {
    "Chemical Structure": "O=C(O)c1cn(C2CC2)c2c(F)c(N3CC(Sc4ncccn4)C3)c(F)cc2c1=O",
    "Value Relation Sign": "=",
    "MIC, µg/mL": 0.25
  }
]

###

System: Staphylococcus aureus
Test Name: Antibacterial activity against quinoline-intermediate methicillin-resistant Staphylococcus aureus by agar dilution method
Format: functional
Strictly below 4 µg/mL in MIC: Yes. Otherwise: No.

[
  {
    "Chemical Structure": "O=C(O)c1cn(C2CC2)c2c(F)c(N3CC(Sc4ncccn4)C3)c(F)cc2c1=O",
    "Group": "Yes"
  },
  {
    "Chemical Structure": "Cn1nnnc1Sc1c(F)cc2c(=O)c(C(=O)O)cn(C3CC3)c2c1F",
    "Group": "No"
  },
  {
    "Chemical Structure": "Cn1nnnc1SC1CN(c2c(F)cc3c(=O)c(C(=O)O)cn(C4CC4)c3c2F)C1",
    "Group": "Yes"
  },
  {
    "Chemical Structure": "O=C(O)c1cn(C2CC2)c2c(F)c(N3CC(Nc4ccc(Cl)cc4)C3)c(F)cc2c1=O",
    "Group": "Yes"
  },
  {
    "Chemical Structure": "CCOC(=O)c1ccc(NC2CN(c3c(F)cc4c(=O)c(C(=O)O)cn(C5CC5)c4c3F)C2)cc1",
    "Group": "Yes"
  },
  {
    "Chemical Structure": "Cc1ccc(SC2CN(c3c(F)cc4c(=O)c(C(=O)O)cn(C5CC5)c4c3F)C2)cc1",
    "Group": "No"
  },
  {
    "Chemical Structure": "COc1ccc(NC2CN(c3c(F)cc4c(=O)c(C(=O)O)cn(C5CC5)c4c3F)C2)cc1",
    "Group": "Yes"
  }
]

###

System: Enterococcus faecalis
Test Name: Antibacterial activity against Enterococcus faecalis by agar dilution method
Format: functional

[
  {
    "Compound": "O=C(O)c1cn(C2CC2)c2c(F)c(N3CC(Sc4nc5ccccc5o4)C3)c(F)cc2c1=O",
    "Unit Symbol": "µg/mL",
    "Value Relation Sign": "=",
    "MIC": 2
  },
  {
    "Compound": "O=C(O)c1cn(C2CC2)c2cc(N3CCNCC3)c(F)cc2c1=O",
    "Unit Symbol": "µg/mL",
    "Value Relation Sign": "=",
    "MIC": 2
  },
  {
    "Compound": "CCOC(=O)c1ccc(NC2CN(c3c(F)cc4c(=O)c(C(=O)O)cn(C5CC5)c4c3F)C2)cc1",
    "Unit Symbol": "µg/mL",
    "Value Relation Sign": "=",
    "MIC": 2
  },
  {
    "Compound": "Cc1ccc(NC2CN(c3c(F)cc4c(=O)c(C(=O)O)cn(C5CC5)c4c3F)C2)cc1",
    "Unit Symbol": "µg/mL",
    "Value Relation Sign": "=",
    "MIC": 0.5
  },
  {
    "Compound": "Cn1nnnc1SC1CN(c2c(F)cc3c(=O)c(C(=O)O)cn(C4CC4)c3c2F)C1",
    "Unit Symbol": "µg/mL",
    "Value Relation Sign": "=",
    "MIC": 1
  },
  {
    "Compound": "O=C(O)c1cn(C2CC2)c2c(F)c(N3CC(N(Cc4ccccc4)Cc4ccccc4)C3)c(F)cc2c1=O",
    "Unit Symbol": "µg/mL",
    "Value Relation Sign": ">",
    "MIC": 64
  },
  {
    "Compound": "Cc1ccc(SC2CN(c3c(F)cc4c(=O)c(C(=O)O)cn(C5CC5)c4c3F)C2)cc1",
    "Unit Symbol": "µg/mL",
    "Value Relation Sign": "=",
    "MIC": 16
  },
  {
    "Compound": "COc1c(N2CCNC(C)C2)c(F)cc2c(=O)c(C(=O)O)cn(C3CC3)c12 (centres undefined)",
    "Unit Symbol": "µg/mL",
    "Value Relation Sign": "=",
    "MIC": 1
  },
  {
    "Compound": "O=C(O)c1cn(C2CC2)c2c(F)c(N3CC(Sc4nc5ccccc5s4)C3)c(F)cc2c1=O",
    "Unit Symbol": "µg/mL",
    "Value Relation Sign": "=",
    "MIC": 4
  }
]
